# Tested on: C. elegans
# Experiment Notes: microbe, parasite or virus in culture
# Cond: Caenorhabditis elegans, 24 h, read-out: Percentage of motility inhibition 24 h, Table S2, C. elegans SS assay, 110 μM, 24 h, averages of 4 data points
// reported inhibition at 110 µM per item
Observable: inhibition at 110 µM (%)

- Compound String: "COc1cc2c(=O)c(-c3ccc(O)cc3)coc2cc1O"
  Reported Measurement: 0
- Compound String: "COc1cc(O)c2c(=O)c3c(O[C@@H]4O[C@H](CO)[C@@H](O)[C@H](O)[C@H]4O)ccc(O)c3oc2c1"
  Reported Measurement: 0
- Compound String: "NC(=O)c1ncn([C@@H]2O[C@H](CO)[C@@H](O)[C@H]2O)c1O"
  Reported Measurement: 29
- Compound String: "C#C[C@]1(O)CC[C@H]2[C@@H]3CCc4cc(O)ccc4[C@H]3CC[C@@]21C"
  Reported Measurement: 15
